Test system: MOLT-4 leukemia
assay-info: NCI-60 one-dose screen, 48 h (100 = growth as untreated, 0 = no growth, -100 = all killed)
protocol-conditions: 10 µM unless noted
Compounds without any hit were thinned out: in the full panel of roughly 83,000, 20% have a hit.
endpoint-label: growth (%)
Just the number in %, nothing appended.

Lab book: growth of `CC1=NN(c2cccc(Cl)c2)C(=O)/C1=C\C=C\c1ccccc1` noted as 28.4

Lab book: growth of `O=C1c2c(c3c4cc(F)ccc4oc3c3[nH]c4ccccc4c23)C(=O)N1O` noted as -22.5

Lab book: growth of `COc1cc(CNC(=O)CCCC/C=C/C(C)C)ccc1OCc1cn(-c2ccc(C(F)(F)F)cc2)nn1` noted as 80.3

Lab book: growth of `COc1cc(C(=O)n2nc(NCCCc3ccccc3)c3cc(N)ccc32)cc(OC)c1OC` noted as 78.6

Lab book: growth of O=C1C=CC2(O)OC(c3ccccc3)CC(=O)C2=C1O (stereo not given) noted as 77.8

----------
System: SF-539 CNS
assay-info: NCI-60 one-dose screen, 48 h (100 = growth as untreated, 0 = no growth, -100 = all killed)
protocol-conditions: 10 µM unless noted
Compounds without any hit were thinned out: in the full panel of roughly 83,000, 20% have a hit.
Can you tell me growth for the items I'm about to list?
Just the number in %, nothing appended.

Known value: SF-539 CNS growth of the compound `Cc1c(Cl)cccc1NC(=O)c1sc2nc3c(cc2c1N)CCCC3` equals 4.43

Known value: SF-539 CNS growth of the compound `O=C(/C=C/c1ccc(Cl)cc1)c1ccc(-n2cc(CN3CCN(c4cc5c(cc4F)c(=O)c(C(=O)O)cn5C4CC4)CC3)nn2)cc1` equals 92.8

Known value: SF-539 CNS growth of the compound CCC(C)C(N)C(=O)NC(CC(C)C)C(=O)N1CCCC1C(=O)NC(Cc1c[nH]c2ccccc12)C(=O)NC(CCCCN)C(=O)NC(Cc1c[nH]c2ccccc12)C(=O)N1CCCC1C(=O)NC(Cc1c[nH]c2ccccc12)C(=O)NC(Cc1c[nH]c2ccccc12)C(=O)N1CCCC1C(=O)NC(Cc1c[nH]c2ccccc12)C(=O)NC(CCCNC(=N)N)C(=O)NC(CCCNC(=N)N)C(N)=O (configuration not stated) equals 110

Known value: SF-539 CNS growth of the compound `Cn1ncc(CC(=O)O)c1-n1nnc2cc(Cl)ccc2c1=O` equals 96.7

Known value: SF-539 CNS growth of the compound `Cc1c2cnccc2c(C)c2c1c1cc(C(=O)O)ccc1n2C` equals -24.5

Known value: SF-539 CNS growth of the compound `COc1ccc(C(=O)/C=C/c2ccc(C)cc2)cc1S(N)(=O)=O` equals 25

Known value: SF-539 CNS growth of the compound `C=C(c1ccc(OC)c(/C=C/C(=O)c2cc(OC)c(OC)c(OC)c2)c1)c1cc(OC)c(OC)c(OC)c1` equals -84.7

----------
Test system: MALME-3M melanoma
assay-info: NCI-60 one-dose screen, 48 h (100 = growth as untreated, 0 = no growth, -100 = all killed)
protocol-conditions: 10 µM unless noted
Compounds without any hit were thinned out: in the full panel of roughly 83,000, 20% have a hit.
endpoint-label: growth (%)
Just the number in %, nothing appended.

Lab book: growth of COc1ccc(C2=NN(C=O)C(c3ccc(Oc4nc5c(c(=O)n(C)c(=O)n5C)n4C)c(OC)c3)C2)cc1 (centres undefined) noted as 102

Lab book: growth of `COc1ccc(-c2nc3cc(C(=O)NC4CCCCC4)ccc3n2C2CCCCC2)cc1` noted as 95.8

Lab book: growth of `CCOC(=O)c1c(N)sc2cc(O)ccc12` noted as 118

Lab book: growth of `COC(=O)[C@H]1Cc2c([nH]c3ccccc23)[C@H](c2ccc3c(c2)OCO3)N1` noted as 99.8

Lab book: growth of `CNc1nc2ncc(-c3c(C)noc3C)cc2n1Cc1ccccc1` noted as 45.4

Lab book: growth of `COc1cc(NC(=O)c2cncnc2Nc2ccc3c(ccn3Cc3cccc(F)c3)c2)cc(OC)c1` noted as 71.6

Lab book: growth of `C#CCOc1cc(/C=N/Nc2nc(-c3ccc(OC)cc3)cs2)ccc1O` noted as 86.1

Lab book: growth of `Nc1n[nH]c2cccc(C#Cc3cccc(C(=O)Nc4ccc(Cl)c(C(F)(F)F)c4)c3)c12` noted as 14.9

Lab book: growth of `CO[C@H]1CC(c2ccc[nH]2)=N[C@]12O[C@@H](C)C[C@@H]1CCCCCCCc3ccc([nH]3)[C@H]12` noted as -14.5

----------
Tested on: RPMI-8226 leukemia
assay-info: NCI-60 one-dose screen, 48 h
protocol-conditions: 10 µM unless noted
Procedure: Growth inhibition of the RPMI-8226 human tumor cell line is measured as a screen for anti-cancer activity. Cells are grown in 96 well plates and exposed to the test compound for 48 hours. Compounds are tested at a single concentration, which is 10^-5 M for most compounds. The reported endpoint is percent growth (GI% or GIPRCNT), where numbers from 0 - 100% represent growth inhibition, and numbers from -100% - 0 represent cell death. For example, a value of 40 represents 60% growth inhibition. […]
Compounds without any hit were thinned out: in the full panel of roughly 83,000, 20% have a hit. Calls of active or inactive are those of the source. The calls were made as follows: active = growth percent below 10; inactive = the rest.
Tick one outcome: label 1 = active, label 0 = inactive

Ask: // param item: `C#C[C@]1(O)CC[C@H]2[C@@H]3CC=C4c5sc(-c6ccccc6)nc5CC[C@]4(C)[C@H]3CC[C@@]21C` ; yields the recorded call
Result: label 1

Ask: // param item: `Oc1ccc(C(c2ccc(O)cc2)c2ccc(Cl)cn2)cc1` ; yields the recorded call
Result: label 0

Ask: // param item: `C=C1C(=O)O[C@H]2[C@H]1CC/C(CNC(=O)/C=C/c1cc(OC)c(OC)c(OC)c1)=C\CC[C@@]1(C)O[C@@H]21` ; yields the recorded call
Result: label 1

Ask: // param item: `C#C[C@]1(O)CC[C@H]2[C@@H]3CC=C4c5sc(-c6cccc(C)c6)nc5CC[C@]4(C)[C@H]3CC[C@@]21C` ; yields the recorded call
Result: label 1

Ask: // param item: `C=CCNc1ccc2c3c(cccc13)C(=O)N(CC=C)C2=O` ; yields the recorded call
Result: label 0

Ask: // param item: `CC1(C)CC[C@]2(CO)CC[C@]3(C)[C@H](CC[C@@H]4[C@@]5(C)CC[C@H](O)C(C)(C)[C@@H]5CC[C@]43C)[C@H]2[C@H]1O` ; yields the recorded call
Result: label 0

Ask: // param item: CCn1c2ccccc2c2cc(C(O)c3cccc4ncccc34)ccc21 (centres undefined) ; yields the recorded call
Result: label 1

Ask: // param item: O=CN1N=C(c2cccc(Nc3ccncc3)c2)CC1c1ccc2c(c1)OCO2 (centres undefined) ; yields the recorded call
Result: label 0

Ask: // param item: O=C1CCC(C(=O)N/N=C/c2ccc([N+](=O)[O-])cc2)N1 (centres undefined) ; yields the recorded call
Result: label 0

----------
Can you tell me growth for the items I'm about to list?
Tested on: T-47D breast
assay-info: NCI-60 one-dose screen, 48 h (100 = growth as untreated, 0 = no growth, -100 = all killed)
protocol-conditions: 10 µM unless noted
This is part of a sample that, as a whole, favours compounds with a hit. Of some 83,000 tested, about 20% had one in any assay.
Just the number in %, nothing appended.

Lab book: growth of CCN1C(=O)N(CC)C2C1NN=c1s/c(=C\c3ccc([N+](=O)[O-])cc3)c(=O)n12 (stereo not given) noted as 23.9

Lab book: growth of CCN1C(=O)N(CC)C2C1NC(=S)N2/N=C/C=C/c1cccs1 (stereo not given) noted as 66.4

Lab book: growth of `COC(=O)c1nc(-c2ccc(C)cc2)oc1N1CCOCC1` noted as 87.3

Lab book: growth of `O=C1NC(=O)C(=Cc2cc(-c3ccc(Cl)cc3)n(-c3ccccc3)n2)C(=O)N1` noted as 93.6

Lab book: growth of `C#CCOc1cccc(-c2ncnc3cc(NC(=O)CCl)ccc23)c1` noted as -33.8

Lab book: growth of `O=C(/C=C/c1ccc([N+](=O)[O-])cc1)c1cccc(Nc2nc(Nc3ccccc3)nc(Nc3ccccc3)n2)c1` noted as 47.1

Lab book: growth of `CCOC(=O)CSc1nc2sc3c(c2c(=O)n1-c1ccccc1)CCCCC3` noted as 94.4

Lab book: growth of `Cc1c(Cl)cccc1NC(=O)c1sc2nc3c(cc2c1N)CCCC3` noted as 35

Lab book: growth of Cc1c(C)c2c(c(C)c1OC(=O)CCC(=O)[O-])CCC(C)(CCCCCCCCCCC[P+](c1ccccc1)(c1ccccc1)c1ccccc1)O2 (stereo not given) noted as -41.6

Lab book: growth of `c1ccc(-c2nc(N3CCNCC3)c3oc(-c4ccccc4)nc3n2)cc1` noted as -41.9

Lab book: growth of `Cn1ncc(CC(=O)O)c1-n1nnc2cc(Cl)ccc2c1=O` noted as 102

Lab book: growth of `COc1ccc(-c2cc(-c3ccc(Nc4nc(Nc5ccc(Cl)cc5)nc(Nc5ccc(Cl)cc5)n4)cc3)no2)cc1` noted as 70.7

Lab book: growth of O=C(CN1C(=O)NC2NC(=O)NC21)N/N=C/c1cccc([N+](=O)[O-])c1 (stereo not given) noted as 107

Lab book: growth of `COc1ccc(/C=C2/CCc3cc4ccc(OC)cc4[o+]c32)c(O)c1` noted as 67.2

Lab book: growth of `Nc1ncc(-c2ccc3ncnc(N4CCc5cc(F)c(Cl)cc54)c3c2)cn1` noted as 8.79

Lab book: growth of `COC12C=C/C(=C(/C(=O)OCc3ccccn3)C(=O)CCCCCCCCC3(OC)C=C/C(=C(/C(=O)OCc4ccccn4)C(=O)CCCCCCCC1)O3)O2` noted as 18.5

Lab book: growth of `CC(=O)/C(Br)=C/c1ccc(Br)o1` noted as 44.8

Lab book: growth of `COc1cc(/C=N/NC(=O)c2ccc3nc(-c4ccc(Cl)cc4)[nH]c3c2)cc(OC)c1OC` noted as 15.9

Lab book: growth of `C/C(=N\NC(=O)c1ccc(C(C)(C)C)cc1)c1ccc(O)cc1O` noted as 24.4

Lab book: growth of `CC(C)(C)n1cc(-c2ccnc(NCCNS(=O)(=O)c3ccc(Br)cc3)c2)c(-c2cccc(O)c2)n1` noted as 8.09
